Tested on: HepG2, DU145 and MBA-MB-231 cancer cell lines
Test: MTT cytotoxicity, stated jointly for the three cancer cell lines
Format: cell-based
Details: Homo sapiens; summary statement for HepG2, DU145 and MBA-MB-231; read-out: IC50 against all three cancer cell lines
pIC50: −log10 of the molar value.
reported-endpoint: pIC50

// known answers, use as guide
Q. Quick check: pIC50 of COc1nc(-c2cc(Cl)sc2Cl)cc(-c2ccccc2)c1C#N ?
A. < 4.00

Q. Consider the molecule COc1nc(-c2cc(Cl)sc2Cl)cc(-c2ccc(C)cc2)c1C#N and give its measured pIC50.
A. < 4.00

Q. # get_value(readout='pIC50', item= COc1ccc(-c2cc(-c3cc(Cl)sc3Cl)nc(OC)c2C#N)cc1Br )
A. 5.30 to 6.00

Then this molecule:
Q. Which pIC50 is reported for this molecule? COc1nc(-c2cc(Cl)sc2Cl)cc(-c2cccc([N+](=O)[O-])c2)c1C#N
A. 5.30 to 6.00
